// data source = a melting point compilation (Tetko et al.; mined from patent text by program, amines drawn as free bases though some values may be those of a salt)

measuredAttribute: melting point

Kindly give each listed record's melting point.
1. C=CC[C@H](CC(=O)OC(C)(C)C)C(=O)N[C@H](C(=O)N[C@H](C)c1ccccc1)C(C)(C)C
2. Nc1sc(-c2cccnc2)c(CN(C2CCCCC2)C2CCCCC2)c1C(=O)c1ccc(Cl)cc1
3. Cc1ccccc1-c1ccc(C=O)cn1

1. 123 to 126 °C
2. 168 to 170 °C
3. 82 to 84 °C

###

Task for the reader: assign each of the following compounds its reported melting point.

>  <compound>
CCOC(=O)Cc1ccc(-c2nc(COc3ccc(CCl)cc3OC)c(C)o2)cc1

>  <melting point>
121 to 122 °C

$$$$
>  <compound>
NCC#Cc1ccc(Cl)cc1C(=O)c1ccccc1Cl

>  <melting point>
81 to 89 °C

$$$$
>  <compound>
CC(Nc1ccc(F)c(F)c1)C(=O)O (stereo not given)

>  <melting point>
163 °C

$$$$
>  <compound>
O=C1NC(=O)C(=Cc2ccc(OCCNc3ncccn3)cc2)S1

>  <melting point>
234 °C

$$$$
>  <compound>
COc1cc2cncnc2cc1OC

>  <melting point>
235 to 237 °C

$$$$

Give one value of melting point per listed compound.
1. CNC(=O)c1ccc(F)c(Cl)c1
2. C=CCCCCCCCCOC(=O)C=Cc1ccccc1O
3. CC1(C)CCC(C)(C)c2cc(C(=O)c3ccc4cc(C(=O)O)ccc4c3)ccc21

1: 108 to 110 °C; 2: 58 °C; 3: 224 °C

###

I'd be grateful if you could share measured melting point for these entries.

Recorded melting point, per entry:
>  <compound>
Cc1cccc2c1CCn1ncnc1C2=C1CCN(C)CC1

>  <melting point>
150 °C

$$$$
>  <compound>
CC(C)[C@H](NC(=O)[C@H](CC(=O)OC(C)(C)C)NC(=O)CNC(=O)c1csc(NC(=O)NCc2ccccc2)n1)C(=O)OC(C)(C)C

>  <melting point>
108 to 110 °C

$$$$
>  <compound>
Oc1ccc(SCc2cc(O)c(O)c(O)c2)cc1

>  <melting point>
158 °C

$$$$
>  <compound>
O=C1C=C(c2c[nH]c3ccccc23)C(=O)O1

>  <melting point>
210 to 214 °C

$$$$
>  <compound>
CCOC(=O)c1cnoc1-c1ccc([N+](=O)[O-])cc1

>  <melting point>
73 to 76 °C

$$$$

# map each compound to its melting point
1. CCCCOCCOc1ccc(-c2ccc3c(c2)C=C(C(=O)O)CCN3C(=O)CNC(C)=O)cc1
2. CCCCc1nc2cccc(C)c2c(=O)n1C1CCC(=O)NC1=O (stereo unspecified)
3. Cc1ccccc1N1CCc2c(C)nc3c(O)cccc3c21
4. Cc1ccc(C(O[Si](C)(C)C(C)(C)C)C(=O)N2CCOCC2)cc1 (stereo unspecified)
5. CCOC(=O)c1cc(Cl)c(OCCCc2cc(C)no2)c(Cl)c1
6. Clc1ccc(CNN2C=CN=CC2)cc1
7. Cc1cc(-c2ccc(Cl)cc2)n2ncc(C#N)c2n1

1. 196 to 201 °C
2. 190 to 192 °C
3. 144 to 146 °C
4. 64 to 65 °C
5. 49 to 50 °C
6. 86 to 87 °C
7. 285 to 287 °C

List reported melting point for each of these compounds:
1. O=C1SC(Cc2ccc(OCCON=Cc3ccc4ccccc4n3)cc2)C(=O)N1C(c1ccccc1)(c1ccccc1)c1ccccc1 (stereo unspecified)
2. Cc1cc2nc(C)c(=O)n(C)c2cc1C
3. NC(=O)C1CCC(NC(=O)NCc2ccc3c(c2)CN(C2CCC(=O)NC2=O)C3=O)CC1 (stereo unspecified)
4. COC(=O)C1=C(C)NC(C)=C(C(=O)OCC2(C)OCCO2)C1c1cccc([N+](=O)[O-])c1 (stereo unspecified)
5. CCOC(=O)c1cn(CCc2ccccc2)nc1N
6. CCOc1ncc(C(C)=O)cc1C(=O)Nc1c(C(N)=O)nn(C2CCN(C(=O)OC(C)(C)C)CC2)c1CC

1. 127 to 130 °C
2. 164 to 166 °C
3. 195 to 197 °C
4. 143 °C
5. 76.9 to 78.6 °C
6. 197 to 202 °C

For each of the compounds below, note its melting point.
1. CC(CCC(=O)N(Cc1ccccc1)Cc1ccccc1)(c1ccc(O)cc1)c1ccc(O)cc1
2. Cc1sc2nc3ccc(C(N)=O)cn3c(=O)c2c1C
3. CCOC(=O)C(=O)Nc1cc2[nH]c(=O)c(=O)n(C3CCCCC3)c2cc1[N+](=O)[O-]
4. CC(C)=NOCCCn1cnc2c(N)nc3cccnc3c21
5. CCCCCS(=O)(=O)NC(=O)c1ccc2[nH]c(C)c(Cc3ccc(SC(C)(C)C)cc3Cl)c2c1

["203 to 207 °C", "361 to 363 °C", "260 °C", "120 to 121 °C", "185 to 188 °C"]
